Below, each of the compounds is paired with its reported composite z-score value.
# assayed_target: Albumin (Bos taurus) (UniProt P02769)
# Sequence (P02769 whole entry, looked up): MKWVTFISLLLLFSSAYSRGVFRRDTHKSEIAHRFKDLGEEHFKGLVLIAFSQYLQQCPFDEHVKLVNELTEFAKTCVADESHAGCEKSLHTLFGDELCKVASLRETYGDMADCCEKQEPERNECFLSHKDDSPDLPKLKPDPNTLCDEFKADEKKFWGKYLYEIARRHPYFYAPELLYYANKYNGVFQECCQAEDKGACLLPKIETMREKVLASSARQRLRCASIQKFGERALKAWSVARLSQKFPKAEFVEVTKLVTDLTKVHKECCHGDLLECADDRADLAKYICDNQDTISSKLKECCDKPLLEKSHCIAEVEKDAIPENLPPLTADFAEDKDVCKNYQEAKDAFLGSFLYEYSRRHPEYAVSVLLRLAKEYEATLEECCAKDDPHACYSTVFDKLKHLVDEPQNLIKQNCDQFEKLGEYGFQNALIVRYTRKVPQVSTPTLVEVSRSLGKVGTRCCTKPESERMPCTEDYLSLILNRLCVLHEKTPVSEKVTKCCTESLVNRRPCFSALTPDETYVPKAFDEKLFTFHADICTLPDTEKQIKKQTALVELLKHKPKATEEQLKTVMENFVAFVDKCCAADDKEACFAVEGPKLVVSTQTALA
# measurement_notes: compounds binding labelled BSA control protein – biochemical, small-molecule microarray, Alexa647 label, 635/667 nm fluorescence, artefact control for SMM control protein annotation, profiling panel (AID 1118);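 also: score merges 667 nm emission intensity and signal-to-noise per printed compound spot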
# run_conditions: BSA-A647 binding, fluorescence 635 nm, higher = more signal

# compound, assayed_target, composite z-score
rows = [
    ("NC(=O)NCC#Cc1ccc2c(c1)[C@]1(C(=O)N2)[C@H](c2ccc(O)cc2)N2[C@H](c3ccccc3)[C@H](c3ccccc3)OC(=O)[C@H]2[C@@H]1C(=O)N1CCN(c2ncccn2)CC1", "Albumin (Bos taurus) (UniProt P02769)", 0.317),
    ("C=CCC(OC(C)=O)[C@@H]1[C@@H](N(Cc2ccc(-c3ccccc3)cc2)C(=O)c2ccc(C)cc2)c2cc(OCCCO)ccc2N1C(=O)c1ccc2ccccc2n1 (stereo partly drawn)", "Albumin (Bos taurus) (UniProt P02769)", -0.361),
    ("COc1ccc([Si](C)(C)[C@H]2[C@H](CC(=O)N(CCO)Cc3ccccc3)O[C@@]3(C(=O)N(Cc4cccc(N5C(=O)c6cccc7cccc5c67)c4)c4ccccc43)[C@@H]2C)cc1", "Albumin (Bos taurus) (UniProt P02769)", 0.375),
    ("COCCOC(=O)N1C(=O)[C@@]2(c3cc(C#Cc4ccc(OC)cc4)ccc31)[C@H](c1ccc(OCCO)cc1)N1[C@H](c3ccccc3)[C@H](c3ccccc3)OC(=O)[C@H]1[C@@H]2C(=O)N1CCc2cc(OC)c(OC)cc2C1", "Albumin (Bos taurus) (UniProt P02769)", -0.536),
    ("COc1ccccc1CN1C(=O)c2ccccc2[C@](Cc2ccccc2I)(C(=O)NCc2ccccc2)[C@@H]1c1ccc(CO)cc1", "Albumin (Bos taurus) (UniProt P02769)", 0.717),
    ("CC1(C)C(=O)C(c2ccccc2)=C2CN3C(=O)N(CCc4ccccc4)C(=O)C3(Cc3ccccc3)C=C21 (stereo not drawn)", "Albumin (Bos taurus) (UniProt P02769)", 0.775),
    ("C=C(COC)C(=O)CC[C@H](OC(=O)c1cccnc1)c1ccccc1OCCO", "Albumin (Bos taurus) (UniProt P02769)", 0.233),
    ("O=c1cccc(-c2cccc3ccccc23)o1", "Albumin (Bos taurus) (UniProt P02769)", 0.702),
    ("COCCOC(=O)N1C(=O)[C@@]2(c3cc(C#CCCO)ccc31)[C@H](C(=O)NC[C@H](O)c1ccccc1)[C@H]1C(=O)O[C@H](c3ccccc3)[C@H](c3ccccc3)N1[C@@H]2c1ccc(OCCO)cc1", "Albumin (Bos taurus) (UniProt P02769)", 0.536),
    ("Cc1ccc(S[C@]2(C(=O)NCC(F)(F)F)CC(=O)N(C3Cc4ccccc4C3)[C@@H]2c2ccc(CO)cc2I)cc1", "Albumin (Bos taurus) (UniProt P02769)", 0.0944),
    ("C=CCN1C(=O)[C@]2(COC(c3ccc(OCCCO)cc3)=N2)Cc2ccccc21", "Albumin (Bos taurus) (UniProt P02769)", 0.284),
    ("C=CCC(OC(C)=O)[C@@H]1[C@@H](N(Cc2cc3ccccc3o2)C(=O)c2ccc(-c3ccccc3)cc2)c2cc(OCCCO)ccc2N1C(=O)Cc1ccc2ccccc2c1 (stereo partly drawn)", "Albumin (Bos taurus) (UniProt P02769)", -0.0043),
    ("COc1ccc([Si](C)(C)[C@@H]2[C@@H](CCO)O[C@]3(C(=O)N(Cc4ccccc4)c4ccc(N(C=O)c5ccccc5)cc43)[C@H]2C)cc1", "Albumin (Bos taurus) (UniProt P02769)", 0.624),
]
